Molecular target: Collagenase 3 (Homo sapiens, UniProt P45452)
Endpoint label: pIC50
Note on pIC50: it is the negative log10 of concentration, concentration in mol/L.

Problem: Reported pIC50 for COc1ccc2c(c1)C(=O)N(C[C@@]1(c3cc4cnccc4o3)NC(=O)NC1=O)C2 : what is it?
Solution: 6.16

----------
Molecular target: Disintegrin and metalloproteinase domain-containing protein 17 (Homo sapiens)
Sequence (P78536 whole entry, the tested form may be a part): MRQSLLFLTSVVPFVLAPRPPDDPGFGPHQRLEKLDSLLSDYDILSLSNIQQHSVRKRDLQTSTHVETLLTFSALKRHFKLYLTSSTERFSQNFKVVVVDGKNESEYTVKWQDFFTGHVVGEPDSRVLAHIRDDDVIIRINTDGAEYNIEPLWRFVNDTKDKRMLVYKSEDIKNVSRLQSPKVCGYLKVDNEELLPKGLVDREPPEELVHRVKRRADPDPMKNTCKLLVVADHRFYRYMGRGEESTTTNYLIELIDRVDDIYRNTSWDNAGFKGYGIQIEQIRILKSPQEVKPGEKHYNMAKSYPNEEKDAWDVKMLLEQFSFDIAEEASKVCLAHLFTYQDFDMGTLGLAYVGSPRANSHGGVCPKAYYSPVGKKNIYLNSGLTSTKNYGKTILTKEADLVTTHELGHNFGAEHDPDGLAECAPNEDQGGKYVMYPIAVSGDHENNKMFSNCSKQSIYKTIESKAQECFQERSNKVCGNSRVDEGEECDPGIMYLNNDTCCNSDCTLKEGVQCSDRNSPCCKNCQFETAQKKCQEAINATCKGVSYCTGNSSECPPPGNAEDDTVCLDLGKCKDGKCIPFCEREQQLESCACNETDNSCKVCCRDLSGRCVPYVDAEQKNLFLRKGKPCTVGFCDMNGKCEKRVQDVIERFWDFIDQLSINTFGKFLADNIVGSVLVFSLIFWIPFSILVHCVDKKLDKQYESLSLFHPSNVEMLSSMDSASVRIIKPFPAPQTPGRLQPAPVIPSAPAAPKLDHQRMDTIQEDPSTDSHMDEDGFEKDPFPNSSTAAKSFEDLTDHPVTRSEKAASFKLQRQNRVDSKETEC
Test: Inhibition of catalytic domain TACE (unknown origin) by FRET assay
Form field: pKi (one value per entry).
Entry type: numeric. Quantity: pKi, the -log10 of concentration in molar units.

Problem: Could you tell me which pKi is on file for COc1ccc2c(c1)C(=O)N(C[C@@]1(c3cc4nc(N)ccc4o3)NC(=O)NC1=O)C2 ?
Solution: 9.30

Problem: Field request: pKi | item: COc1ccc2c(c1)C(=O)N(C[C@@]1(c3cc4nc(-c5cn[nH]c5)ccc4o3)NC(=O)NC1=O)C2
Solution: 9.30

Problem: Endpoint output: pKi of COc1ccc2c(c1)C(=O)N(C[C@@]1(c3cc4c(C(F)(F)F)nccc4o3)NC(=O)NC1=O)C2 . Value?
Solution: 9.40

Problem: Look up pKi: COc1ccc2c(c1)C(=O)N(C[C@@]1(c3cc4cnc(N5CCNC5=O)cc4o3)NC(=O)NC1=O)C2
Solution: 8.74

Problem: Need pKi, item COc1ccc2c(c1)C(=O)N(C[C@@]1(c3cc4c(C)nc(C)cc4o3)NC(=O)NC1=O)C2
Solution: 9.30

Problem: Returns the measured pKi for the input compound. Input: COc1ccc2c(c1)C(=O)N(C[C@@]1(c3cc4nc(N(c5cn[nH]c5)C5CCNCC5)ccc4o3)NC(=O)NC1=O)C2
Solution: 9.40

Problem: Using the record for COc1ccc2c(c1)C(=O)N(C[C@@]1(c3cc4ncccc4o3)NC(=O)NC1=O)C2 , report its pKi.
Solution: 9.30

Problem: Consider the compound shown here: COc1ccc2c(c1)C(=O)N(C[C@@]1(c3cc4c(O)nccc4o3)NC(=O)NC1=O)C2 What is its recorded pKi?
Solution: 9.70

----------
Target: Disintegrin and metalloproteinase domain-containing protein 10 (Homo sapiens, UniProt O14672)
Sequence (O14672 whole entry): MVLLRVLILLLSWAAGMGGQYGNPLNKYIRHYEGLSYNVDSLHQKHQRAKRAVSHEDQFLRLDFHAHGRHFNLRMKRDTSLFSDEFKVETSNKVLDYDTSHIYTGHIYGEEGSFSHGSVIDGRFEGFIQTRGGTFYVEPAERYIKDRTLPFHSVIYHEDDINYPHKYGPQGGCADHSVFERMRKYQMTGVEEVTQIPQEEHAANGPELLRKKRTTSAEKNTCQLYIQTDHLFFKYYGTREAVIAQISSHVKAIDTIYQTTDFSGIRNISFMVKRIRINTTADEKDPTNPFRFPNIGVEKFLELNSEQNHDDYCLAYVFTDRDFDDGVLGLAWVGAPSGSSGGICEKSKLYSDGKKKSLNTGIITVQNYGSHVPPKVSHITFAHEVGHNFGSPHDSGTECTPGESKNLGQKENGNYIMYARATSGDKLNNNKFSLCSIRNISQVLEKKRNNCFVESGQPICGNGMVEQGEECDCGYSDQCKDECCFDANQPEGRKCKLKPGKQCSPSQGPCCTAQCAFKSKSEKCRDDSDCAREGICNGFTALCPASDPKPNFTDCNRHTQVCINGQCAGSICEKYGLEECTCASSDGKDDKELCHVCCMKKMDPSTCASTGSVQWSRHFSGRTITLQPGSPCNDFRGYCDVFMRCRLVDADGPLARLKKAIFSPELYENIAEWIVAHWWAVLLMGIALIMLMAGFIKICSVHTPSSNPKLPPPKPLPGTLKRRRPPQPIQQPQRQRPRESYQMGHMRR
Endpoint label: pKi
Reminder that pKi is minus the log10 of a molar concentration.

Problem: So what does the record say about pKi for COc1ccc2c(c1)C(=O)N(C[C@@]1(c3cc4cnccc4o3)NC(=O)NC1=O)C2 ?
Solution: 6.84
